conditions: 315.15 K; 101.33 kPa; Liquid; Vibrating tube method
What mass density was measured for each of the following?
Answer with a number only, understood to be in kg/m3.

Find the recorded mass density belonging to `OCC(F)(F)C(F)(F)C(F)(F)C(F)(F)C(F)(F)F` and report it. 1674.47

Find the recorded mass density belonging to `OCC(F)(F)C(F)(F)F` and report it. 1472.06

Find the recorded mass density belonging to `OCC(F)(F)C(F)(F)C(F)(F)F` and report it. 1560.89

Find the recorded mass density belonging to `OCC(F)(F)C(F)(F)C(F)(F)C(F)(F)F` and report it. 1617.12

* * *

settings: 306.15 K; 101.33 kPa; Liquid; Vibrating tube method
What mass density was measured for each of the following?
Answer with a number only, understood to be in kg/m3.

Find the recorded mass density belonging to OCC(F)(F)C(F)(F)C(F)(F)C(F)(F)C(F)(F)F [2,2,3,3,4,4,5,5,6,6,6-undecafluorohexan-1-ol] and report it. 1692.62

Find the recorded mass density belonging to OCC(F)(F)C(F)(F)C(F)(F)C(F)(F)F [2,2,3,3,4,4,5,5,5-nonafluoropentan-1-ol] and report it. 1635.43

Find the recorded mass density belonging to OCC(F)(F)C(F)(F)F [2,2,3,3,3-pentafluoropropanol] and report it. 1490.1

Find the recorded mass density belonging to OCC(F)(F)C(F)(F)C(F)(F)F [2,2,3,3,4,4,4-heptafluorobutanol] and report it. 1579.38

* * *

conditions: 304.15 K; 101.33 kPa; Liquid; Vibrating tube method
Numbers after ± are expanded uncertainties.
What mass density was measured for each of the following?

Find the recorded mass density belonging to OCC(F)(F)C(F)(F)F [2,2,3,3,3-pentafluoropropanol] and report it. 1494.03 ± 2 kg/m3

Find the recorded mass density belonging to OCC(F)(F)C(F)(F)C(F)(F)C(F)(F)C(F)(F)F [2,2,3,3,4,4,5,5,6,6,6-undecafluorohexan-1-ol] and report it. 1696.59 ± 2.6 kg/m3

Find the recorded mass density belonging to OCC(F)(F)C(F)(F)C(F)(F)F [2,2,3,3,4,4,4-heptafluorobutanol] and report it. 1583.41 ± 2.3 kg/m3

Find the recorded mass density belonging to OCC(F)(F)C(F)(F)C(F)(F)C(F)(F)F [2,2,3,3,4,4,5,5,5-nonafluoropentan-1-ol] and report it. 1639.43 ± 5.3 kg/m3

* * *

details: 289.15 K; 101.33 kPa; Liquid; Vibrating tube method
Numbers after ± are expanded uncertainties.
What mass density was measured for each of the following?
Note: state the figure and append the unit.

Find the recorded mass density belonging to `OCC(F)(F)C(F)(F)C(F)(F)C(F)(F)F` and report it. 1668.76 ± 5.5 kg/m3

Find the recorded mass density belonging to `OCC(F)(F)C(F)(F)C(F)(F)F` and report it. 1612.81 ± 2.4 kg/m3

Find the recorded mass density belonging to `OCC(F)(F)C(F)(F)C(F)(F)C(F)(F)C(F)(F)F` and report it. 1725.71 ± 2.7 kg/m3

Find the recorded mass density belonging to `OCC(F)(F)C(F)(F)F` and report it. 1522.62 ± 2.1 kg/m3

* * *

settings: 280.15 K; 101.33 kPa; Liquid; Vibrating tube method
Numbers after ± are expanded uncertainties.
testReadout: mass density
Note: state the figure and append the unit.

Find the recorded mass density belonging to OCC(F)(F)C(F)(F)C(F)(F)C(F)(F)C(F)(F)F [2,2,3,3,4,4,5,5,6,6,6-undecafluorohexan-1-ol] and report it. 1742.69 ± 2.8 kg/m3

Find the recorded mass density belonging to OCC(F)(F)C(F)(F)C(F)(F)F [2,2,3,3,4,4,4-heptafluorobutanol] and report it. 1629.87 ± 2.4 kg/m3

Find the recorded mass density belonging to OCC(F)(F)C(F)(F)C(F)(F)C(F)(F)F [2,2,3,3,4,4,5,5,5-nonafluoropentan-1-ol] and report it. 1685.83 ± 5.6 kg/m3

Find the recorded mass density belonging to OCC(F)(F)C(F)(F)F [2,2,3,3,3-pentafluoropropanol] and report it. 1539.17 ± 2.2 kg/m3

* * *

conditions: 308.15 K; 101.33 kPa; Liquid; Vibrating tube method
testReadout: mass density (kg/m3)
Answer with a number only, understood to be in kg/m3.

Find the recorded mass density belonging to `OCC(F)(F)C(F)(F)F` and report it. 1486.15

Find the recorded mass density belonging to `OCC(F)(F)C(F)(F)C(F)(F)F` and report it. 1575.32

Find the recorded mass density belonging to `OCC(F)(F)C(F)(F)C(F)(F)C(F)(F)F` and report it. 1631.4

Find the recorded mass density belonging to `OCC(F)(F)C(F)(F)C(F)(F)C(F)(F)C(F)(F)F` and report it. 1688.62

* * *

What mass density was measured for each of the following?
conditions: 329.15 K; 101.33 kPa; Liquid; Vibrating tube method
Answer with a number only, understood to be in kg/m3.

Find the recorded mass density belonging to `OCC(F)(F)C(F)(F)C(F)(F)C(F)(F)C(F)(F)F` and report it. 1645.29

Find the recorded mass density belonging to `OCC(F)(F)C(F)(F)F` and report it. 1442.57

Find the recorded mass density belonging to `OCC(F)(F)C(F)(F)C(F)(F)C(F)(F)F` and report it. 1587.59

Find the recorded mass density belonging to `OCC(F)(F)C(F)(F)C(F)(F)F` and report it. 1530.81

* * *

conditions: 314.15 K; 101.33 kPa; Liquid; Vibrating tube method
Numbers after ± are expanded uncertainties.
testReadout: mass density
Note: state the figure and append the unit.

Find the recorded mass density belonging to OCC(F)(F)C(F)(F)C(F)(F)C(F)(F)F [2,2,3,3,4,4,5,5,5-nonafluoropentan-1-ol] and report it. 1619.17 ± 5.1 kg/m3

Find the recorded mass density belonging to OCC(F)(F)C(F)(F)F [2,2,3,3,3-pentafluoropropanol] and report it. 1474.09 ± 2 kg/m3

Find the recorded mass density belonging to OCC(F)(F)C(F)(F)C(F)(F)C(F)(F)C(F)(F)F [2,2,3,3,4,4,5,5,6,6,6-undecafluorohexan-1-ol] and report it. 1676.51 ± 2.6 kg/m3

Find the recorded mass density belonging to OCC(F)(F)C(F)(F)C(F)(F)F [2,2,3,3,4,4,4-heptafluorobutanol] and report it. 1562.97 ± 2.2 kg/m3

* * *

conditions: 328.15 K; 101.33 kPa; Liquid; Vibrating tube method
What mass density was measured for each of the following?
Answer with a number only, understood to be in kg/m3.

Find the recorded mass density belonging to `OCC(F)(F)C(F)(F)C(F)(F)F` and report it. 1533.02

Find the recorded mass density belonging to `OCC(F)(F)C(F)(F)F` and report it. 1444.74

Find the recorded mass density belonging to `OCC(F)(F)C(F)(F)C(F)(F)C(F)(F)F` and report it. 1589.74

Find the recorded mass density belonging to `OCC(F)(F)C(F)(F)C(F)(F)C(F)(F)C(F)(F)F` and report it. 1647.42

* * *

What mass density was measured for each of the following?
conditions: 290.15 K; 101.33 kPa; Liquid; Vibrating tube method
Answer with a number only, understood to be in kg/m3.

Find the recorded mass density belonging to `OCC(F)(F)C(F)(F)C(F)(F)C(F)(F)C(F)(F)F` and report it. 1723.81

Find the recorded mass density belonging to `OCC(F)(F)C(F)(F)C(F)(F)F` and report it. 1610.89

Find the recorded mass density belonging to `OCC(F)(F)C(F)(F)C(F)(F)C(F)(F)F` and report it. 1666.84

Find the recorded mass density belonging to `OCC(F)(F)C(F)(F)F` and report it. 1520.75

* * *

details: 317.98 K; Liquid; Closed cell (Static) method
± gives the expanded uncertainty stated by the source.
testReadout: vapor or sublimation pressure
Note: state the figure and append the unit.

Find the recorded vapor or sublimation pressure belonging to OCC(F)(F)C(F)(F)F [2,2,3,3,3-pentafluoropropanol] and report it. 19.59 ± 0.12 kPa

Find the recorded vapor or sublimation pressure belonging to OCC(F)(F)C(F)(F)C(F)(F)C(F)(F)C(F)(F)F [2,2,3,3,4,4,5,5,6,6,6-undecafluorohexan-1-ol] and report it. 1.708 ± 0.018 kPa

Find the recorded vapor or sublimation pressure belonging to OCC(F)(F)C(F)(F)C(F)(F)C(F)(F)F [2,2,3,3,4,4,5,5,5-nonafluoropentan-1-ol] and report it. 4.071 ± 0.032 kPa

Find the recorded vapor or sublimation pressure belonging to OCC(F)(F)C(F)(F)C(F)(F)F [2,2,3,3,4,4,4-heptafluorobutanol] and report it. 9.905 ± 0.065 kPa

* * *

What mass density was measured for each of the following?
conditions: 286.15 K; 101.33 kPa; Liquid; Vibrating tube method
Answer with a number only, understood to be in kg/m3.

Find the recorded mass density belonging to `OCC(F)(F)C(F)(F)C(F)(F)C(F)(F)F` and report it. 1674.48

Find the recorded mass density belonging to `OCC(F)(F)C(F)(F)C(F)(F)F` and report it. 1618.54

Find the recorded mass density belonging to `OCC(F)(F)C(F)(F)C(F)(F)C(F)(F)C(F)(F)F` and report it. 1731.41

Find the recorded mass density belonging to `OCC(F)(F)C(F)(F)F` and report it. 1528.18
